B1: TPR t1 (parent)
chain: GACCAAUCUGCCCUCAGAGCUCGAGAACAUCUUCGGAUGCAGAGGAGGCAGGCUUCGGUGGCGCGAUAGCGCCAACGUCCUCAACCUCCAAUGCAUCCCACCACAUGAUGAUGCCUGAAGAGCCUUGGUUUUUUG

Variants of: B1
Experiment: polymerase ribozyme fitness, log enrichment relative to wild type (log ratio); higher = more active; in vitro selection for triplet polymerase activity
// map polymerase ribozyme fitness (log ratio) onto a label; ranges lower bin: < -3; middle bin: ≥ -3 and < -1; upper bin: ≥ -1

Solved cases (6 shown):
variant_string="U21G C73U" class_name="middle bin"
variant_string="C72U U78C C97A" class_name="lower bin"
variant_string="C11G C76A G77A G93U" class_name="middle bin"
variant_string="C20U G61A C124A G135C" class_name="upper bin"
variant_string="C11U C99U" class_name="lower bin"
variant_string="C22G A27U C88U A121U" class_name="middle bin"

Ask: Quick check: band for C8G U38C G42A C56U C124A
Result: middle bin

Ask: Quick check: band for C79U A111U U112A C124A
Result: upper bin

Ask: Quick check: band for U55C C56A A90G C94G G110C U116A A121G
Result: lower bin

Ask: Quick check: band for C13A A95C G120A
Result: upper bin
